Tested on: influx of neutrophils to the lung in LPS-challenged rats
Assay: Rat LPS neutrophilia model
Format: in vivo
Settings: intratracheal compound 15 min-24 hours before LPS aerosol (100 ug/ml, 15 min), lavage 4 hours later, in at least one of the range of conditions tested
Assay metric: inhibition of neutrophilia (neutrophil influx to the lung)

[
  {
    "Query smiles": "CNC(=O)c1ccc(C)c(-c2nc(N(C)CCCN(C)C)nc3c2CNC(=O)N3c2c(F)cccc2F)c1",
    "Result": "inactive"
  },
  {
    "Query smiles": "CNC(=O)c1ccc(C)c(-c2nc(N3CCC(N4CCCC4)CC3)nc3c2CNC(=O)N3c2c(F)cccc2F)c1",
    "Result": "inactive"
  },
  {
    "Query smiles": "Cc1ccc(C(=O)Nc2ccc(C)c(-c3nc(OC(C)C)nc4c3CNC(=O)N4c3c(F)cccc3F)c2)cc1F",
    "Result": "inactive"
  }
]

###

Test system: influx of neutrophils to the lung in LPS-challenged rats
Test: Rat LPS neutrophilia model
Type: in vivo
Conditions: intratracheal compound 15 min-24 hours before LPS aerosol (100 ug/ml, 15 min), lavage 4 hours later, in at least one of the range of conditions tested
Assay metric: inhibition of neutrophilia (neutrophil influx to the lung)

[
  {
    "Query smiles": "CCN(CC)CCCNc1nc(-c2cc(C(=O)Nc3ccc(F)cc3)ccc2C)c2c(n1)N(c1c(F)cccc1F)C(=O)NC2",
    "Result": "inactive"
  },
  {
    "Query smiles": "CSc1nc(-c2cc(NC(=O)c3ccc(C)c(F)c3)ccc2C)c2c(n1)N(c1c(F)cccc1F)C(=O)NC2",
    "Result": "inactive"
  }
]

Value source: patent US7674789B2
